test-system: Human autotaxin enzyme (Homo sapiens, UniProt Q13822)
Construct: purchased R&D System
assay-explanation: Evaluation of autotaxin inhibitor, 18:0 Lyso PC / choline assay (Test Example 2)
Type: biochemical
stated-conditions: human autotaxin enzyme, 18:0 Lyso PC substrate, choline assay, room temperature 2 hours; read-out: Inhibitor activity (IC50)
pIC50: −log10 of the molar value.
measured-quantity: pIC50

Inquiry: # lookup: pIC50 of CCCCCc1nc(-c2ccc(Cl)cc2)cc(=O)n1CC(=O)N1CCC(CC(=O)O)CC1 [Compound I-0045]
Reply text: > 8.00

Inquiry: # lookup: pIC50 of COC(=O)Nc1cc(Cl)ccc1-c1cc(=O)n(CC(=O)N(C)C(C)(C)C)c(C)n1 [Compound I-0269]
Reply text: 7.00 to 8.00

Inquiry: # lookup: pIC50 of CC(C)(O)CNC(=O)Cn1c(CCCC(F)(F)F)nc(-c2ccc(Cl)cc2)cc1=O [Compound I-0134]
Reply text: > 8.00

Inquiry: # lookup: pIC50 of O=C(O)c1ccc(Cn2c(CCCC(F)(F)F)nc(-c3ccc(Cl)cc3)cc2=O)o1 [Compound I-0280]
Reply text: 7.00 to 8.00

Inquiry: # lookup: pIC50 of CC(C)(C)C(=O)Nc1cc(Cl)ccc1-c1cc(=O)n(Cc2cccc(C(=O)O)c2)cn1 [Compound I-0427]
Reply text: 7.00 to 8.00

Inquiry: # lookup: pIC50 of O=C(Cn1c(CCCC(F)(F)F)nc(-c2ccc(C(F)(F)F)cc2)cc1=O)NCc1c[nH]nn1 [Compound I-0330]
Reply text: 7.00 to 8.00
